# measurementTarget: T1, human IL-4 receptor alpha chain on cells (TF-1 cells, primary human T-cell blasts and B cells) (human, UniProt P24394 26-825)
# T1 sequence (looked up): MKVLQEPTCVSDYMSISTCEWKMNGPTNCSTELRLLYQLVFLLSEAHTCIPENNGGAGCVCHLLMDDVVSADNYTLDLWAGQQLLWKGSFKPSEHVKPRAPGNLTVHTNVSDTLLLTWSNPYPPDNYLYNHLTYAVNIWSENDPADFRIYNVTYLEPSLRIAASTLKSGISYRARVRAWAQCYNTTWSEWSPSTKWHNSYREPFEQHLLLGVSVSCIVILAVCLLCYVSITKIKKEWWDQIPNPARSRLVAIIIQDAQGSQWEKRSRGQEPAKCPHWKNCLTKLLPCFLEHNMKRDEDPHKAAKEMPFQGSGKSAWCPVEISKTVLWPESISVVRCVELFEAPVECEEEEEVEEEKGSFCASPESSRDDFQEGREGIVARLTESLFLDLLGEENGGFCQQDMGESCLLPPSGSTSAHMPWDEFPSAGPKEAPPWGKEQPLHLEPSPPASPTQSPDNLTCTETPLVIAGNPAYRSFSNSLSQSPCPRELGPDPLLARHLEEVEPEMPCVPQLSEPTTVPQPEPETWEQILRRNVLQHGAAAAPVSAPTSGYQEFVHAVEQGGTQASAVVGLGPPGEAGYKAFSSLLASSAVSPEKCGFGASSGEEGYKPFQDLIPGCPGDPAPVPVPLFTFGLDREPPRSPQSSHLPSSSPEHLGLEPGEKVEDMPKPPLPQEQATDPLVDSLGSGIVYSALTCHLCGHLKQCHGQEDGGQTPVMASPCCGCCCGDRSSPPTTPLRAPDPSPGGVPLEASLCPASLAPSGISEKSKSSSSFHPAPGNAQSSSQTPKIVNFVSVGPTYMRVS
# protocolDescription: cell-based or functional assay
In this section, each of the binders is paired with its reported IC50 (nM), primary B cell proliferation to anti-CD40 and IL-4.
observationType: IC50 (nM), primary B cell proliferation to anti-CD40 and IL-4

>  <binder>
IL-4TM-A104C (R121D/Y124D/A104C) PEGylated with 40 kDa branched maleimide-PEG (ligand, 40 kDa branched maleimide-PEG on Cys 104 (numbered according to wild type IL-4)) MHKCDITLQEIIKTLNSLTEQKTLCTELTVTDIFAASKNTTEKETFCRAATVLRQFYSHHEKDTRCLGATAQQFHRHKQLIRFLKRLDRNLWGLAGLNSCPVKECNQSTLENFLERLKTIMDEKDSKCSS

>  <recordedNumber>
19.4

$$$$
>  <binder>
IL-4TM-A104C (R121D/Y124D/A104C) PEGylated with 30 kDa linear maleimide-PEG (ligand, 30 kDa linear maleimide-PEG on Cys 104 (numbered according to wild type IL-4)) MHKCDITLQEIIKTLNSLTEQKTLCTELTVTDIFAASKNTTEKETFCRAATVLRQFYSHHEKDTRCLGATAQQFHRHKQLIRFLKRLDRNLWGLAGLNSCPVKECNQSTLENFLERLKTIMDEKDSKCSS

>  <recordedNumber>
13

$$$$
>  <binder>
IL-4TM-N38C (R121D/Y124D/N38C) PEGylated with 40 kDa branched maleimide-PEG (ligand, 40 kDa branched maleimide-PEG on Cys 38 (numbered according to wild type IL-4)) MHKCDITLQEIIKTLNSLTEQKTLCTELTVTDIFAASKCTTEKETFCRAATVLRQFYSHHEKDTRCLGATAQQFHRHKQLIRFLKRLDRNLWGLAGLNSCPVKEANQSTLENFLERLKTIMDEKDSKCSS

>  <recordedNumber>
6.85

$$$$
>  <binder>
PEGylated T13D-N38C with 40 kDa branched PEG (IL4-RE-T13D-N38C) (ligand, 40 kDa branched maleimide-PEG on Cys 38 (numbered according to wild type IL-4)) MHKCDITLQEIIKDLNSLTEQKTLCTELTVTDIFAASKCTTEKETFCRAATVLRQFYSHHEKDTRCLGATAQQFHRHKQLIRFLKRLDRNLWGLAGLNSCPVKEANQSTLENFLERLKTIMDEKDSKCSS

>  <recordedNumber>
2.43

$$$$
>  <binder>
IL-4RA (IL-4 double mutein R121D/Y124D, unPEGylated) (ligand, also called BAY 16-9996; IL-4DM) MHKCDITLQEIIKTLNSLTEQKTLCTELTVTDIFAASKNTTEKETFCRAATVLRQFYSHHEKDTRCLGATAQQFHRHKQLIRFLKRLDRNLWGLAGLNSCPVKEANQSTLENFLERLKTIMDEKDSKCSS

>  <recordedNumber>
1.71

$$$$
>  <binder>
IL4-RE-T13D (T13D/R121D/Y124D), unPEGylated (ligand) MHKCDITLQEIIKDLNSLTEQKTLCTELTVTDIFAASKNTTEKETFCRAATVLRQFYSHHEKDTRCLGATAQQFHRHKQLIRFLKRLDRNLWGLAGLNSCPVKEANQSTLENFLERLKTIMDEKDSKCSS

>  <recordedNumber>
0.5

$$$$
